- SYSTEM UNDER TEST: human ether-à-go-go-related gene (hERG) potassium channel (human, UniProt Q12809)
- Sequence (Q12809 whole entry, looked up): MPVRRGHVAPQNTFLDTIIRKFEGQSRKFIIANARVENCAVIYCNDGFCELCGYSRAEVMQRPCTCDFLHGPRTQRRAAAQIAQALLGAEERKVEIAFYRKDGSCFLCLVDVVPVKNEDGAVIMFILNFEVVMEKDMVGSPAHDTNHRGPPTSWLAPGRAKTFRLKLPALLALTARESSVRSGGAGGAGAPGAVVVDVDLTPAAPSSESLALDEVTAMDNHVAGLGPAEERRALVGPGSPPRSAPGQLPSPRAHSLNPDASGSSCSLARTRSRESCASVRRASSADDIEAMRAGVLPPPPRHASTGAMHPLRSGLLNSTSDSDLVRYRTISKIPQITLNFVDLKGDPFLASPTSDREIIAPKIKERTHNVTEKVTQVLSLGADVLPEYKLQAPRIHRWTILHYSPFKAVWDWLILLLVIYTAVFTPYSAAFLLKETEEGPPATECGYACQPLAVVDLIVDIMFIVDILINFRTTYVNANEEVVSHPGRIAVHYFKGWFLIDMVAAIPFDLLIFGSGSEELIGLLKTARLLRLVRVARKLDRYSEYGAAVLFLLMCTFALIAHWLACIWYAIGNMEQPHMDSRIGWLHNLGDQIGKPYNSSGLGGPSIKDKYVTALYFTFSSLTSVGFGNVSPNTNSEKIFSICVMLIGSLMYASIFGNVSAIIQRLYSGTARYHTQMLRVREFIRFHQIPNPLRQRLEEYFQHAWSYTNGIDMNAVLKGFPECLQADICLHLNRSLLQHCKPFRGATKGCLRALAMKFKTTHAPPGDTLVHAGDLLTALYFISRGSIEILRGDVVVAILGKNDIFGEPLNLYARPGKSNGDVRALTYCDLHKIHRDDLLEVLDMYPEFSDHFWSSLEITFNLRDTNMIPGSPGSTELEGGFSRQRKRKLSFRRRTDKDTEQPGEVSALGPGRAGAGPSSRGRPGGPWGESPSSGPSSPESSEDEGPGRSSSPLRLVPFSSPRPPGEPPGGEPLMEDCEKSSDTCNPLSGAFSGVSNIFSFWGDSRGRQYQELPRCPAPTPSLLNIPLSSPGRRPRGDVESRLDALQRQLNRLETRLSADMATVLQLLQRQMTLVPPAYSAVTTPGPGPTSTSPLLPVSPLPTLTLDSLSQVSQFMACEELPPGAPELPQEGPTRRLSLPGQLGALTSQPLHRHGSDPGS
- PROCEDURE TEXT: primary screen, population patch clamp on CHO cells stably expressing hERG; higher = less effect of the substance
Screen size: about 310,000 compounds; about 14,000 (4.5%) showed an effect of 50% or more. Effects have a minus sign here. The list comes from a sample in which strong results are over-represented; it also holds close analogues and randomly drawn compounds.
TEST READOUT: hERG current change (%, negative = inhibition) at 10uM
Returns: string containing the numeric result and its unit.

// worked examples, hERG current change (%, negative = inhibition) at 10uM included
| MOLECULAR STRING | VALUE OBSERVED |
| --- | --- |
| O=c1oc2cc(OCc3c(F)c(F)c(F)c(F)c3F)ccc2cc1-c1ccccn1 | 14% |
| Cc1cc(N=NC(=O)c2ccccc2)ccc1O | 4.74% |
| COc1ccccc1-c1nnc(SCC(=O)NCc2ccco2)n1N | 17.2% |
| CCn1cc(S(=O)(=O)N2CCN(c3ccc(Cl)cc3)CC2)cn1 | 7.96% |
| CCSc1nnc(SCC(=O)N2CCN(C(=O)c3ccco3)CC2)s1 | -33.4% |

With those in mind, consider the next compound.
Provide only the value of recorded hERG current change (%, negative = inhibition) at 10uM for N#Cc1cc2cc3c(cc2nc1NCCNC(=S)NCCCN1CCOCC1)OCO3
14.2%

###

- SYSTEM UNDER TEST: human ether-à-go-go-related gene (hERG) potassium channel (human, UniProt Q12809);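 further: peak tail current of the secondary pulse compared with the same well before compound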
- PROCEDURE TEXT: primary screen, population patch clamp on CHO cells stably expressing hERG; higher = less effect of the substance
In all, about 310,000 compounds went through this assay and about 14,000 (4.5%) showed an effect of 50% or more. Effects have a minus sign here. Shown is part of a subset that was picked to be rich in strong results.
The following compounds are listed with their measured hERG current change (%, negative = inhibition) at 10uM values.

// worked examples, hERG current change (%, negative = inhibition) at 10uM included
| COMPOUND | VALUE OBSERVED |
| --- | --- |
| Cc1ccc(-c2c[n+](CC(=O)Nc3nc(-c4ccc(F)cc4)cs3)c3n2CCC3)cc1.[Cl-] | -74.2% |
| O=C(c1ccccc1Br)N1CCN(c2ccccn2)CC1 | 9.41% |
| Cc1ccc(S(=O)(=O)N2CCN(c3ccc([N+](=O)[O-])c(Sc4nncn4C)c3)CC2)cc1 | -62.3% |
| Cn1cnnc1Sc1ccc(S(C)(=O)=O)cc1[N+](=O)[O-] | 13% |
| COc1ccccc1CCNC(=O)c1ccc2nc[nH]c2c1 | 3.97% |

Provide only the value of recorded hERG current change (%, negative = inhibition) at 10uM for CCCCNC(=O)C1CCN(S(=O)(=O)N2CCOCC2)CC1
5.58%

Provide only the value of recorded hERG current change (%, negative = inhibition) at 10uM for Cc1ccc(NC(=S)N(CCCN2CCOCC2)Cc2ccco2)cc1C
-31.9%

Provide only the value of recorded hERG current change (%, negative = inhibition) at 10uM for Cc1ccc2[nH]c(=O)c(CN(Cc3ccco3)C(=O)c3ccncc3)cc2c1
-43.4%

Provide only the value of recorded hERG current change (%, negative = inhibition) at 10uM for COC(=O)c1cccc(-n2nnnc2SCC(=O)Nc2nc3c(s2)CCCC3)c1
-0.926%

Provide only the value of recorded hERG current change (%, negative = inhibition) at 10uM for Cc1ccc(NCC(=O)Nc2cccc(F)c2)cc1S(=O)(=O)N1CCCCCC1
-22.6%

Provide only the value of recorded hERG current change (%, negative = inhibition) at 10uM for Cn1cnnc1Sc1cc(N2CCNCC2)ccc1[N+](=O)[O-]
7.66%

Provide only the value of recorded hERG current change (%, negative = inhibition) at 10uM for Cn1cnnc1Sc1cc(N2CCN(S(=O)(=O)c3ccc(Cl)c(Cl)c3)CC2)ccc1[N+](=O)[O-]
-10.6%

Provide only the value of recorded hERG current change (%, negative = inhibition) at 10uM for C=CCNC(=O)c1nn2cccnc2c1Cl
12.7%

Provide only the value of recorded hERG current change (%, negative = inhibition) at 10uM for Cn1c(NC(=O)C[n+]2cc(-c3ccc(F)cc3)n3c2CCC3)cc(=O)n(C)c1=O.[Cl-]
1.04%

Provide only the value of recorded hERG current change (%, negative = inhibition) at 10uM for Cc1ccc(NC(=S)N(CCCN2CCOCC2)Cc2ccco2)cc1
4.36%

Provide only the value of recorded hERG current change (%, negative = inhibition) at 10uM for Cc1ccc(NC(=S)N(CCCN2CCC(C)CC2)Cc2ccco2)cc1C
-70.3%

Provide only the value of recorded hERG current change (%, negative = inhibition) at 10uM for O=C(C[n+]1cc(-c2ccc(F)cc2)n2c1CCC2)Nc1nc(-c2ccccc2)cs1.[Cl-]
-11.1%

Provide only the value of recorded hERG current change (%, negative = inhibition) at 10uM for CC12CCC(C(=O)Nc3ccc(Br)cn3)(OC1=O)C2(C)C (centres unmarked)
7.13%

Provide only the value of recorded hERG current change (%, negative = inhibition) at 10uM for CCCCc1n[nH]c2c1/C(=N/O)CC(c1ccccc1)C2 (centres unmarked)
8.46%

Provide only the value of recorded hERG current change (%, negative = inhibition) at 10uM for Cc1cc(/C=C2\SC(=O)N(C)C2=O)c(C)n1-c1ccc(S(N)(=O)=O)cc1
13.3%

###

- SYSTEM UNDER TEST: human ether-à-go-go-related gene (hERG) potassium channel (human);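 further: peak tail current of the secondary pulse compared with the same well before compound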
- PROCEDURE TEXT: primary screen, population patch clamp on CHO cells stably expressing hERG; higher = less effect of the substance
The campaign covered roughly 310,000 compounds. About 14,000 (4.5%) showed an effect of 50% or more. The effect is printed as a negative number. The full list was thinned out, with strong results kept by preference.
TEST READOUT: hERG current change (%, negative = inhibition) at 10uM (%)
Note: unit % is implicit; provide only the numeric part.

// worked examples, hERG current change (%, negative = inhibition) at 10uM included
| COMPOUND | UNITS | VALUE OBSERVED |
| --- | --- | --- |
| COc1ccc2c(Cl)c(-c3nnc(SCC(=O)c4ccccc4)n3C)sc2c1 | % | 8.28 |
| CCOC(=O)C1CCCN(c2nc3ccccc3nc2C(C#N)C(=O)OC(C)C)C1 (stereo not drawn) | % | 8.39 |

Provide only the value of recorded hERG current change (%, negative = inhibition) at 10uM for CCc1ccc2nc(N(CCCN(C)C)C(=O)c3ccc(S(=O)(=O)N4CCCC4)cc3)sc2c1.Cl
-67.7

Provide only the value of recorded hERG current change (%, negative = inhibition) at 10uM for Cc1ccc2nc(N(CCCN(C)C)C(=O)c3ccc(S(=O)(=O)N4CCCCCC4)cc3)sc2c1.Cl
-58

Provide only the value of recorded hERG current change (%, negative = inhibition) at 10uM for COCCn1c(=NC(=O)CSCC(=O)N2CCOCC2)sc2cc(C)ccc21
-14.8

Provide only the value of recorded hERG current change (%, negative = inhibition) at 10uM for COc1ccc(-n2ncc(C(=O)N3CCN(c4ccc(F)cc4)CC3)c2C)cc1
-22.6

###

- SYSTEM UNDER TEST: human ether-à-go-go-related gene (hERG) potassium channel (human);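 further: peak tail current of the secondary pulse compared with the same well before compound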
- PROCEDURE TEXT: primary screen, population patch clamp on CHO cells stably expressing hERG; higher = less effect of the substance
The campaign covered roughly 310,000 compounds. About 14,000 (4.5%) showed an effect of 50% or more. Effects have a minus sign here. The full list was thinned out, with strong results kept by preference.
TEST READOUT: hERG current change (%, negative = inhibition) at 10uM (%)
Note: unit % is implicit; provide only the numeric part.

Provide only the value of recorded hERG current change (%, negative = inhibition) at 10uM for CCOCCCn1c(=NC(=O)c2ccco2)c(C(=O)OCC)cc2c(=O)n3cccc(C)c3nc21
-74

Provide only the value of recorded hERG current change (%, negative = inhibition) at 10uM for CN1C2CCC1CC(NC(=O)CSc1ccc(Cl)cc1)C2 (stereo not shown)
-8.94

###

- SYSTEM UNDER TEST: human ether-à-go-go-related gene (hERG) potassium channel (human);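 further: peak tail current of the secondary pulse compared with the same well before compound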
- PROCEDURE TEXT: primary screen, population patch clamp on CHO cells stably expressing hERG; higher = less effect of the substance
Out of some 310,000 compounds screened, about 14,000 (4.5%) showed an effect of 50% or more. The effect is printed as a negative number. The entries come from a sample that favours strong results as a whole.
TEST READOUT: hERG current change (%, negative = inhibition) at 10uM (%)
Note: unit % is implicit; provide only the numeric part.

// worked examples, hERG current change (%, negative = inhibition) at 10uM included
| COMPOUND | UNITS | VALUE OBSERVED |
| --- | --- | --- |
| CCc1nc2ccc(C(=O)N3CCN(c4ccc(Cl)cc4)CC3)cc2nc1CC | % | -6.46 |
| Cc1noc(C)c1CSc1nnc2ccc3ccccc3n12 | % | -25.1 |

With those in mind, consider the next compound.
Provide only the value of recorded hERG current change (%, negative = inhibition) at 10uM for O=C(c1ccc2c(=O)n3c(nc2c1)CCCCC3)N1CCN(c2ccc([N+](=O)[O-])cc2)CC1
-73
